# Subject of test: protein-protein interaction between Kras and SOS1 (biotin-tagged human Kras loaded with GDP, His-tagged human SOS1) (Homo sapiens (Human), UniProt P01116, G12D)
# Measurement protocol: Protein-protein interaction inhibition between Kras and SOS1 (KrasG12D-SOS PPI) using AlphaScreen;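 further: kras produced in E. coli, Ni-coupled donor beads and streptavidin acceptor beads, excitation 680 nm with emission detected at 520–620 nm via singlet oxygen transfer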
# Type: biochemical
# Run conditions: AlphaScreen; biotin-tagged human Kras loaded with GDP, His-tagged human SOS1; read-out: KRAS G12D-SOS PPI IC50
Numbered stars: 1 amine (or outer) side, 2 acyl side, 3 side chain; on linkers, the order of the positions; unused ones are H or OH. Bridge positions count the residues as written; N and C are the ends. Square brackets hold non-standard residues; d marks the D form. Peptide text beside a SMILES is read from it. * marks the point of attachment. hPhe(3-Cl-4-CF3) = N[C@@H](CCc1ccc(C(F)(F)F)c(Cl)c1)C(=O)O; hPhe(3-F,4-CF3) = N[C@@H](CCc1ccc(C(F)(F)F)c(F)c1)C(=O)O; X27 = CN([C@@H](Cc1ccc(C(F)(F)F)nc1)C(=O)[*:2])[*:1]; NMePhe(4-CF3) = CN[C@@H](Cc1ccc(C(F)(F)F)cc1)C(=O)O; hPhe(4-CF3) = N[C@@H](CCc1ccc(C(F)(F)F)cc1)C(=O)O; X37 = CC(C)(C)NC(=O)COC[C@H](CC(=O)[*:1])N[*:2]; NMePhe(4-Cl) = CN[C@@H](Cc1ccc(Cl)cc1)C(=O)O; NMePhe(4-I) = CN[C@@H](Cc1ccc(I)cc1)C(=O)O; NMedβ3hAla = C[C@H](CC(=O)[*:2])N(C)[*:1]; NMeGly(cPent) = CN[C@H](C(=O)O)C1CCCC1; NMeCha = CN[C@@H](CC1CCCCC1)C(=O)O; Hyp = O=C(O)[C@@H]1C[C@@H](O)CN1; NMeChg = CN[C@H](C(=O)O)C1CCCCC1; NMeF = CN[C@@H](Cc1ccccc1)C(=O)O; NMeI = CC[C@H](C)[C@H](NC)C(=O)O; NMeD = CN[C@@H](CC(=O)O)C(=O)O; NMeHpra = C#CCC[C@H](NC)C(=O)O; NMeL = CN[C@@H](CC(C)C)C(=O)O; Chg = N[C@H](C(=O)O)C1CCCCC1; NMeNva = CCC[C@H](NC)C(=O)O; NMeV = CN[C@H](C(=O)O)C(C)C; d(β3hA) = C[C@@H](N)CC(=O)O; NMeS = CN[C@@H](CO)C(=O)O; NMeA = CN[C@@H](C)C(=O)O; NMeAib = CNC(C)(C)C(=O)O; Piperidide = C1CCN(*)CC1; Pyrrolidide = C1CCN(*)C1; Ac5c = NC1(C(=O)O)CCCC1; Aze = O=C(O)[C@@H]1CCN1; Sar = CNCC(=O)O; Propyl = CCC*
Exam item: assign YES to entries whose IC50 is below 10 nM and NO to entries at or above 10 nM. Note that a value of exactly 10 nM receives NO.

Compound: CCO[C@@H]1C[C@H]2C(=O)NC3(CCCC3)C(=O)N(C)[C@@H]([C@@H](C)CC)C(=O)N(C)[C@H](C)CC(=O)N(C)[C@@H](CC(C)C)C(=O)N[C@@H]([C@@H](C)CC)C(=O)N(C)[C@@H](C)C(=O)N3CC[C@H]3C(=O)N(C)[C@@H](Cc3ccc(C(F)(F)F)cc3)C(=O)N(C)CC(=O)N[C@@H](CCc3ccc(C(F)(F)F)c(Cl)c3)C(=O)N2C1 [Compound 301] (cyclo([Ac5c][NMeI][NMedβ3hAla][NMeL]I[NMeA][Aze][NMePhe(4-CF3)][Sar][hPhe(3-Cl-4-CF3)][Hyp](Et)))
Category label: YES
//
Compound: CCCOC[C@H]1C(=O)N(C)CC(=O)N[C@@H](CCc2ccc(C(F)(F)F)c(Cl)c2)C(=O)N2CCC[C@H]2C(=O)NC2(CCCC2)C(=O)N(C)[C@@H]([C@@H](C)CC)C(=O)N(C)[C@H](C(=O)N2CCCC2)CC(=O)N(C)[C@@H](CC(C)C)C(=O)N[C@@H]([C@@H](C)CC)C(=O)N(C)[C@@H](C)C(=O)N2CC[C@H]2C(=O)N1C [Compound 567] ([NMeL]I[NMeA][Aze][NMeS](Propyl)[Sar][hPhe(3-Cl-4-CF3)]P[Ac5c][NMeI][NMeD]-Pyrrolidide; lactam N-11)
Category label: YES
//
Compound: CC[C@H](C)[C@@H]1NC(=O)[C@H](CC(C)C)N(C)C(=O)C[C@@H](C(=O)N2CCCCC2)N(C)C(=O)[C@H](C2CCCCC2)N(C)C(=O)C2(CCCC2)NC(=O)[C@H](Cc2ccc(C(F)(F)F)nc2)N(C)C(=O)[C@H](CCc2ccc(C(F)(F)F)c(Cl)c2)NC(=O)CN(C)C(=O)[C@H](CC2CCCCC2)N(C)C(=O)CN(C)C(=O)CN(C)C1=O [Compound 10] ([NMeL]I[Sar][Sar][NMeCha][Sar][hPhe(3-Cl-4-CF3)][X27][Ac5c][NMeChg][NMeD]-Piperidide; lactam N-11)
Category label: NO
//
Compound: CC[C@H](C)[C@@H]1NC(=O)[C@H](C)N(C)C(=O)C[C@@H](C)NC(=O)[C@H](CC(C)C)N(C)C(=O)[C@H](Cc2ccccc2)N(C)C(=O)[C@H](CC(C)C)NC(=O)[C@H](CCc2ccc(C(F)(F)F)c(F)c2)NC(=O)CN(C)C(=O)[C@H](Cc2ccc(Cl)cc2)N(C)C(=O)CN(C)C(=O)CN(C)C1=O [Compound 2093] (cyclo(I[Sar][Sar][NMePhe(4-Cl)][Sar][hPhe(3-F,4-CF3)]L[NMeF][NMeL][d(β3hA)][NMeA]))
Category label: NO
//
Compound: CC[C@H](C)[C@@H]1NC(=O)[C@H](CC(C)C)N(C)C(=O)C[C@@H](C)NC(=O)[C@H](C2CCCC2)N(C)C(=O)C2(CCCC2)NC(=O)[C@@H]2CCCN2C(=O)[C@H](CCc2ccc(C(F)(F)F)c(Cl)c2)NC(=O)CN(C)C(=O)[C@H](C)N(C)C(=O)[C@@H]2CCN2C(=O)[C@H](C)N(C)C1=O [Compound 1300] (cyclo([Ac5c][NMeGly(cPent)][d(β3hA)][NMeL]I[NMeA][Aze][NMeA][Sar][hPhe(3-Cl-4-CF3)]P))
Category label: NO
//
Compound: C#CCC[C@H]1C(=O)N[C@@H]([C@@H](C)CC)C(=O)N(C)[C@@H](C)C(=O)N2CC[C@H]2C(=O)N(C)[C@@H](Cc2ccc(I)cc2)C(=O)N(C)CC(=O)N[C@@H](CCc2ccc(C(F)(F)F)c(Cl)c2)C(=O)N2CCC[C@H]2C(=O)NC2(CCCC2)C(=O)N(C)[C@@H](C2CCCCC2)C(=O)N(C)[C@H](C)CC(=O)N1C [Compound 961] (cyclo([Ac5c][NMeChg][NMedβ3hAla][NMeHpra]I[NMeA][Aze][NMePhe(4-I)][Sar][hPhe(3-Cl-4-CF3)]P))
Category label: NO
//
Compound: CC(C)C[C@@H]1NC(=O)C(C)(C)N(C)C(=O)[C@H](CC(C)C)NC(=O)[C@H](CCc2ccc(C(F)(F)F)c(F)c2)NC(=O)CN(C)C(=O)[C@H](Cc2ccc(Cl)cc2)N(C)C(=O)CN(C)C(=O)CN(C)C(=O)[C@H](C2CCCCC2)NC(=O)[C@H](CC(C)C)N(C)C(=O)C[C@@H](C)N(C)C1=O [Compound 1133] (cyclo([Chg][Sar][Sar][NMePhe(4-Cl)][Sar][hPhe(3-F,4-CF3)]L[NMeAib]L[NMedβ3hAla][NMeL]))
Category label: NO
//
Compound: CCC[C@H]1C(=O)N[C@@H]([C@@H](C)CC)C(=O)N(C)[C@@H](C)C(=O)N2CC[C@H]2C(=O)N(C)[C@@H](CC2CCCCC2)C(=O)N(C)CC(=O)N[C@@H](CCc2ccc(C(F)(F)F)c(Cl)c2)C(=O)N2CCC[C@H]2C(=O)NC2(CCCC2)C(=O)N(C)[C@@H]([C@@H](C)CC)C(=O)N(C)[C@H](C(=O)N2CCCCC2)CC(=O)N1C [Compound 1132] ([NMeNva]I[NMeA][Aze][NMeCha][Sar][hPhe(3-Cl-4-CF3)]P[Ac5c][NMeI][NMeD]-Piperidide; lactam N-11)
Category label: YES
//
Compound: CC[C@H](C)[C@@H]1NC(=O)[C@H](C(C)C)N(C)C(=O)C[C@@H](COCC(=O)NC(C)(C)C)NC(=O)[C@H](CC(C)C)N(C)C(=O)C2(CCCC2)NC(=O)[C@H](CC(C)C)N(C)C(=O)[C@H](CCc2ccc(C(F)(F)F)cc2)NC(=O)CN(C)C(=O)[C@H](Cc2ccc(Cl)cc2)N(C)C(=O)CN(C)C(=O)CN(C)C1=O [Compound 759] ([NMeV]I[Sar][Sar][NMePhe(4-Cl)][Sar][hPhe(4-CF3)][NMeL][Ac5c][NMeL]; linker N-C via X37)
Category label: NO
